study-target: UniProt:P23743
test-method-notes: biochemical
experimental-parameters: detergent/lipid micelle substrate; read-out: DGKα IC50
experimental-readout: IC50

Please review the entries below; each comes with its answer.
{"columns": ["compound", "IC50"],
 "data": [
  ["C#CCn1c(=O)c([N+](=O)[O-])c(N2CCN(C(c3ccc(F)cc3)c3ccc(F)cc3OC)CC2)c2nc(C#N)ccc21 (racemic) [Example 126]", "6100 nM"],
  ["Cn1c(=O)c(C#N)c(N2CCN(C(c3ccccc3)c3ccccc3)CC2)c2ncccc21", "4000 nM"],
  ["Cn1c(=O)c(C#N)c(N2CCN(Cc3ccc(F)cc3F)CC2)c2nc(Cl)ccc21", "1200 nM"]
]}

*Q* Supply IC50 value. Item: C#CCn1c(=O)c([N+](=O)[O-])c(N2CCN(C(CC)c3ccc(F)cc3)CC2)c2nc(C#N)ccc21 (racemic) [Example 139]
*A* 410 nM

*Q* Supply IC50 value. Item: COc1ccc(CN2CCN(c3c(C#N)c(=O)n(C)c4ccc(Cl)nc34)CC2)cc1O
*A* 65 nM

*Q* Supply IC50 value. Item: Cn1c(=O)c(C(=O)C(F)(F)F)c(N2CCN(C(c3ccc(F)cc3)c3ccc(F)cc3)CC2)c2ncccc21
*A* > 240000 nM

*Q* Supply IC50 value. Item: COc1ccccc1CN1CCN(c2c(C#N)c(=O)n(C)c3ccc(Br)nc23)CC1
*A* 890 nM

---

study-target: human DGKζ (Homo sapiens (Human))
Sequence (Q13574 other isoform, or with tags, fused parts or gaps): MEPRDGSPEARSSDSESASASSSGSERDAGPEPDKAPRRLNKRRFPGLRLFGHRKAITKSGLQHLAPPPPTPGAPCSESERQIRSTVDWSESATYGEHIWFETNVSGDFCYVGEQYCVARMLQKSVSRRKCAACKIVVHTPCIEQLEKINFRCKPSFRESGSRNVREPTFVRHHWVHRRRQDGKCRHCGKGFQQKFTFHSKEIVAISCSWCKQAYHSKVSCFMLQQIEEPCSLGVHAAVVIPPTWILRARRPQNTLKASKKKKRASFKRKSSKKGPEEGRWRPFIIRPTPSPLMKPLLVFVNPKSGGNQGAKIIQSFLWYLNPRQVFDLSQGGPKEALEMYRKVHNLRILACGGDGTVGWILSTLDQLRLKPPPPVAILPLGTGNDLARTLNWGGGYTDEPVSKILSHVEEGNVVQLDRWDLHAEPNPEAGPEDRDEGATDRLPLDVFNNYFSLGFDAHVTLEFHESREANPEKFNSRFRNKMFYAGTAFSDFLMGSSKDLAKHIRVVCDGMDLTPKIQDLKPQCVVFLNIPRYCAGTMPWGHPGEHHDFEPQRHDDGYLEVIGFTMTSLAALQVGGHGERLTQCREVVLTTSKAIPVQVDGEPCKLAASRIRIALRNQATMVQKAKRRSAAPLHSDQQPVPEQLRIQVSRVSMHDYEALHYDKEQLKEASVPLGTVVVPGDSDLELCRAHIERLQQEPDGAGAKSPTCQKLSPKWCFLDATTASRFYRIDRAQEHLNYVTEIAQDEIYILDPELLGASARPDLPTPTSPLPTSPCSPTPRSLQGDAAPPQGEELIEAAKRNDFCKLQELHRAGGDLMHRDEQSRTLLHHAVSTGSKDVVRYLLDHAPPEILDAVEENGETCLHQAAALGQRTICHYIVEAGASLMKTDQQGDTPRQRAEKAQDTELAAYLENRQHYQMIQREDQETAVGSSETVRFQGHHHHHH
test-method-notes: DGKζ LIPGLO assay (extruded liposome substrate)
Type: biochemical
experimental-parameters: DGKζ LIPGLO IC50, extruded liposome substrate
Exam item: assign rule met to entries whose IC50 is below 2000 nM and rule not met to entries at or above 2000 nM. Note that a value of exactly 2000 nM receives rule not met.

Look over these answered cases.
{"columns": ["molecule", "group-label"],
 "data": [
  ["CCC(c1ccc(F)cc1)N1CCN(c2c([N+](=O)[O-])c(=O)n(C)c3ccc(C#N)nc23)CC1 (single isomer, unassigned) [Example 34]", "rule not met"],
  ["CC(c1ccc(F)cc1)N1CCN(c2c(C#N)c(=O)n(CC3CC3)c3ccc(Br)nc23)CC1 (single isomer, unassigned) [Example 164]", "rule not met"],
  ["COc1cc(F)ccc1C(c1ccc(F)cc1)N1CCN(c2c([N+](=O)[O-])c(=O)n(C)c3ccc(C#N)nc23)CC1 (single isomer, unassigned) [Example 125]", "rule not met"]
]}

*Q* Does the reported IC50 of Cn1c(=O)c(C#N)c(N2CCN(C(c3ccc(F)cc3)c3ccccc3O)CC2)c2nc(C#N)ccc21 (stereo not drawn) stay below 2000 nM?
*A* rule met

*Q* Does the reported IC50 of C#CCn1c(=O)c([N+](=O)[O-])c(N2CCN(C(C)c3ccc(F)cc3)CC2)c2nc(C#N)ccc21 (single isomer, unassigned) [Example 136] stay below 2000 nM?
*A* rule met

*Q* Does the reported IC50 of C#CCn1c(=O)c([N+](=O)[O-])c(N2CCN(C(C)c3ccc(F)cc3)CC2)c2nc(C#N)ccc21 (single isomer, unassigned) [Example 137] stay below 2000 nM?
*A* rule met

---

study-target: human DGKα (Homo sapiens (Human), UniProt P23743)
Sequence (P23743 other isoform, or with tags, fused parts or gaps): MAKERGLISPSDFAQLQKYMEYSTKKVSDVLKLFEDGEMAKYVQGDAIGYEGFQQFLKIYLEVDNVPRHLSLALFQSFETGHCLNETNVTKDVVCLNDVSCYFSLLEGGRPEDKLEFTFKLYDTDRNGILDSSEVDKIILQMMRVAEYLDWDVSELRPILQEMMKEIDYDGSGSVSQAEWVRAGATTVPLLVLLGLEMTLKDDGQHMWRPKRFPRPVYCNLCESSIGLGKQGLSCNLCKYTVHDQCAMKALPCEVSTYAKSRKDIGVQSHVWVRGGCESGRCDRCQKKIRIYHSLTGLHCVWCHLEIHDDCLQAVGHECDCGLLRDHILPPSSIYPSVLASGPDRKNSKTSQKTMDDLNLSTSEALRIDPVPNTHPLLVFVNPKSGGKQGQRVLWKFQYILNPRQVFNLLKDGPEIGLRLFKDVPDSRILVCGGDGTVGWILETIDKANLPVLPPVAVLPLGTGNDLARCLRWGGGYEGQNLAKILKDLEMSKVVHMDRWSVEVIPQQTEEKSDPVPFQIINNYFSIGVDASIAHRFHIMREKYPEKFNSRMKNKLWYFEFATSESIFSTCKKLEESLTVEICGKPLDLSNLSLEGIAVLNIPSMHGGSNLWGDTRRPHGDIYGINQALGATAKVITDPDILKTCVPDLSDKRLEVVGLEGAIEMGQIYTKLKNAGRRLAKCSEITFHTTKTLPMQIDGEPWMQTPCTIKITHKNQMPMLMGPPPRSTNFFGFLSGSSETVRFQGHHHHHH
test-method-notes: biochemical
experimental-parameters: detergent/lipid micelle substrate; read-out: DGKα IC50
pIC50: −log10 of the molar value.
Classification field: enter yes (1) for pIC50 values not below 6, no (0) for values below it.

*Q* Given the entry Cn1c(=O)c([N+](=O)[O-])c(N2CCN(C(c3ccc(F)cc3)c3ccccc3O)CC2)c2nc(C#N)ccc21 (single isomer, unassigned) [Example 99] , answer whether its pIC50 meets or surpasses 6.
*A* yes (1)

*Q* Given the entry C#CCn1c(=O)c([N+](=O)[O-])c(N2CCN(C(c3ccc(F)cc3)c3ccccc3OC)CC2)c2nc(C#N)ccc21 (single isomer, unassigned) [Example 131] , answer whether its pIC50 meets or surpasses 6.
*A* no (0)

*Q* Given the entry Cn1c(=O)c([N+](=O)[O-])c(N2CCN(C(c3ccc(F)cc3)c3ccccc3O)CC2)c2nc(C#N)ccc21 (single isomer, unassigned) [Example 98] , answer whether its pIC50 meets or surpasses 6.
*A* no (0)

*Q* Given the entry Cn1c(=O)c(C#N)c(N2CCN(Cc3ccc(Cl)cc3O)CC2)c2nc(C#N)ccc21 [Example 269] , answer whether its pIC50 meets or surpasses 6.
*A* yes (1)

*Q* Given the entry Cc1ccc(CN2CCN(c3c(C#N)c(=O)n(C)c4ccc(Cl)nc34)CC2)c(O)c1 [Example 273] , answer whether its pIC50 meets or surpasses 6.
*A* yes (1)

*Q* Given the entry Cn1c(=O)c(C#N)c(N2CCN(Cc3c(O)cccc3Br)CC2)c2nc(Cl)ccc21 [Example 258] , answer whether its pIC50 meets or surpasses 6.
*A* yes (1)

The measurements presented in this section are drawn from patent US11866430B2.
